Test system: MCF10A
Assay: normalised growth rate inhibition (GR value) relative to DMSO control (GR (1 = untreated growth, 0 = cytostasis, <0 = cytotoxic)); higher = less growth inhibition
Settings: 0.04 µM; 72 h
observed_property: normalised growth rate inhibition
API doc: respond with a numeric literal and nothing else, no unit.

# get_value(readout='normalised growth rate inhibition', item= Nc1ccc(C(=O)Nc2cccc(-c3nc(N4CCOCC4)c4oc5ncccc5c4n3)c2)cn1 )
1.01

Recorded normalised growth rate inhibition of CNC(=O)c1cc(Oc2ccc(NC(=O)Nc3ccc(Cl)c(C(F)(F)F)c3)cc2)ccn1 [sorafenib] , please.
1.02

Entry CN1CCN(CCOc2cc(OC3CCOCC3)c3c(Nc4c(Cl)ccc5c4OCO5)ncnc3c2)CC1 [saracatinib] : reported normalised growth rate inhibition = ?
1.01

Given CC(C)CC(=O)Nc1n[nH]c2c1CN(C(=O)C1CCN(C)CC1)C2(C)C , state its recorded normalised growth rate inhibition.
0.322

Quick one: normalised growth rate inhibition for CCC(=O)N1CCN(c2ccc(-n3c(=O)ccc4cnc5ccc(-c6cnc7ccccc7c6)cc5c43)cc2C(F)(F)F)CC1 [torin-1] ?
0.529

Quick one: normalised growth rate inhibition of Cc1cc(C(C)Nc2ccccc2)c2nc(N3CCOCC3)cc(=O)n2c1 (stereo not drawn) [TGX-221] ?
0.968

Please look up its normalised growth rate inhibition: O=C1NC(=O)/C(=C/c2ccc3nccc(-c4ccncc4)c3c2)S1
0.987

What value of normalised growth rate inhibition has been recorded for this entry: Cc1nc(Nc2ncc(C(=O)Nc3c(C)cccc3Cl)s2)cc(N2CCN(CCO)CC2)n1 [dasatinib]
0.621

====

Tested on: BT20
Assay: normalised growth rate inhibition (GR value) relative to DMSO control (GR (1 = untreated growth, 0 = cytostasis, <0 = cytotoxic)); higher = less growth inhibition
Conditions: 1.11 µM; 72 h
Would you kindly list normalised growth rate inhibition for each of these molecules?
Number, no unit, nothing else.

So what does the record say about normalised growth rate inhibition for Cc1cc(C(=O)NOCCO)c(Nc2ccc(I)cc2F)n(C)c1=O [AZD-8330] ?
0.739

Field request: normalised growth rate inhibition | item: Cc1cc(C(C)Nc2ccccc2)c2nc(N3CCOCC3)cc(=O)n2c1 (configuration not stated) [TGX-221]
1.02

# lookup: normalised growth rate inhibition of CC1=C(CO)C(=O)O[C@@H]([C@@H](C)[C@H]2CC[C@H]3[C@@H]4C[C@H]5O[C@]56[C@@H](O)C=CC(=O)[C@]6(C)[C@H]4CC[C@]23C)C1 [withaferin-a]
-0.105

Any idea what normalised growth rate inhibition was measured for C[C@@H]1C[C@H]2O[C@@H]2/C=C\C=C\C(=O)Cc2c(Cl)c(O)cc(O)c2C(=O)O1 [radicicol] ?
-0.0176

Item under review: O=C(Nc1cccc(Nc2ncc(Br)c(NCCc3cnc[nH]3)n2)c1)N1CCCC1 [BX-912] . Reported normalised growth rate inhibition?
0.939

So what's the measured normalised growth rate inhibition for this one? CC(=O)Nc1nc(C)c(-c2ccc(Cl)c(S(=O)(=O)NCCO)c2)s1
0.973

Would you mind telling me what normalised growth rate inhibition value was observed for OCCCNc1cc(-c2ccnc(Nc3cccc(Cl)c3)n2)ccn1 ?
-0.323

Entry O=C1NC(=O)/C(=C/c2ccc3nccc(-c4ccncc4)c3c2)S1 : reported normalised growth rate inhibition = ?
-0.221

Find the recorded normalised growth rate inhibition belonging to CCc1cc(Nc2nccc(-c3c(-c4ccc(OC)c(C(=O)Nc5c(F)cccc5F)c4)nc4ccccn34)n2)c(OC)cc1N1CCC(N2CCN(S(C)(=O)=O)CC2)CC1 and report it.
0.937

Fill in the blank: the reported normalised growth rate inhibition of CCOc1cc2ncc(C#N)c(Nc3ccc(F)c(Cl)c3)c2cc1NC(=O)/C=C/CN(C)C [pelitinib] is ____.
0.697

Request the reported normalised growth rate inhibition associated with CS(=O)(=O)N1CCN(Cc2cc3nc(-c4cccc5[nH]ncc45)nc(N4CCOCC4)c3s2)CC1 [GDC-0941]
0.258

What does the record list as normalised growth rate inhibition for Cc1ccc(NC(=O)c2ccc(CN3CCN(C)CC3)cc2)cc1Nc1nccc(-c2cccnc2)n1 [imatinib] ?
1.02

Entry under review: C=CC(=O)Nc1cccc(Nc2nc(NC3CCC(N(C)C)CC3)nc3c2ncn3C(C)C)c1 (configuration not stated) [WZ-3105] . Reported normalised growth rate inhibition?
-0.207

Fill in the blank: the reported normalised growth rate inhibition of Cc1ncc(-c2ccnc(Nc3ccc(S(C)(=O)=O)cc3)n2)n1C(C)C [AZD-5438] is ____.
0.0675

Bench note: what normalised growth rate inhibition did O=c1cc(N2CCOCC2)oc2c(-c3cccc4c3sc3ccccc34)cccc12 [NU-7441] show?
0.958

Returns the measured normalised growth rate inhibition for the input molecule. Input: COc1ccc(-c2ccc3c(N4CCOC[C@@H]4C)nc(N4CCOC[C@@H]4C)nc3n2)cc1CO [AZD-8055]
0.0556

// returns reported normalised growth rate inhibition for input Nc1cc(C(F)(F)F)c(-c2cc(N3CCOCC3)nc(N3CCOCC3)n2)cn1 [buparlisib]
0.0131
